Measured values drawn from patent US8927500B2 for this set.

Assignment: determine reported pKi for the given compounds.
Biological target: MDM2 (Homo sapiens)
Sequence (Q00987 1-125): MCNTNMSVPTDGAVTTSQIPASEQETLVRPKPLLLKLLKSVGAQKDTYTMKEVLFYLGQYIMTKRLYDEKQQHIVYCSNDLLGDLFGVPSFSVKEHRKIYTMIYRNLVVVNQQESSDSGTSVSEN
Assay: Competitive fluorescence polarization assay for MDM2
Assay type: binding
Conditions: competitive FP assay, MDM2; read-out: Ki (MDM2)
pKi: −log10 of the molar value.

COMPOUND	pKi
CCCC[C@H](NC(=O)[C@H](C)NC(=O)[C@H](C)NC(=O)[C@]1(C)CCCC=CCCCCCC[C@@](C)(NC(=O)[C@H](Cc2ccccc2)NC(=O)[C@@H](NC(=O)[C@H](CC(C)C)NC(C)=O)[C@@H](C)O)C(=O)N[C@@H](C)C(=O)N[C@@H](Cc2ccc(O)cc2)C(=O)N[C@@H](Cc2c[nH]c3ccccc23)C(=O)N[C@@H](C)C(=O)N[C@@H](CCC(N)=O)C(=O)N[C@@H](CC(C)C)C(=O)N1)C(=O)N[C@@H](C)C(N)=O (single isomer, unassigned)	7.00 to 8.00

Exercise: Consider the compound CCCC[C@H](NC(=O)[C@H](C)NC(=O)[C@H](C)NC(=O)[C@]1(C)CCCC=CCCCCCC[C@@](C)(NC(=O)[C@H](Cc2ccccc2)NC(=O)[C@@H](NC(=O)[C@H](CC(C)C)NC(C)=O)[C@@H](C)O)C(=O)N[C@@H](C)C(=O)N[C@@H](Cc2ccc(O)cc2)C(=O)N[C@@H](Cc2c[nH]c3ccccc23)C(=O)N[C@@H](C)C(=O)N[C@@H](CCC(N)=O)C(=O)N[C@@H](CC(C)C)C(=O)N1)C(=O)N[C@@H](C)C(=O)O (single isomer, unassigned) and give its recorded pKi.
Key: > 8.00
